- Tested on: human eosinophils
- experiment summary: Cytokine-sustained (GM-CSF or IL-5) eosinophil survival
- Assay type: cell-based
- cond: Homo sapiens, Eosinophil; GM-CSF 70 pM, 48 h, 0.1% FBS; read-out: IC50, inhibition of GM-CSF-induced eosinophil survival
readout name: pIC50
Entry type: numeric. Quantity: pIC50, the -log10 of concentration in molar units.

Tested system human eosinophils; pIC50 recorded for Cc1ccc2c(NC[C@](O)(CC(C)(C)c3cc(F)cc4c3OCC4)C(F)(F)F)cccc2n1 [BOL-303242-X] was 6.80

###

- Tested on: human HMC-1 cells
- experiment summary: Ionomycin-induced cytokine/chemokine release in HMC-1 cells (Luminex)
- Format: cell-based
- cond: HMC1, 18 h after ionomycin, 95% confidence limits in brackets, read-out: IC50 (nM), CCL5/RANTES release induced by ionomycin
readout name: IC50
Answer with the number, then the unit.

Note to self: IC50 recorded for Cc1ccc2c(NC[C@](O)(CC(C)(C)c3cc(F)cc4c3OCC4)C(F)(F)F)cccc2n1 was 88.7 nM
